Origin of values: patent US10358436B2

# System Name: UniProtKB O14965
# Protocol Description: Aurora A inhibition assay (Z-Lyte)
# Format: biochemical
Overview of reported inhibition at 1 µM across a group of compounds:

compound COc1ccc2c(c1)[C@]1(C[C@H]1c1ccc3c(/C=C/c4ccc(CN5CCOCC5)c(F)c4)n[nH]c3c1)C(=O)N2 , inhibition at 1 µM observed: > 50%

compound N#Cc1ccc(/C=C/c2n[nH]c3cc([C@@H]4C[C@@]45C(=O)Nc4ccccc45)ccc23)cc1 (relative stereo) , inhibition at 1 µM observed: > 50%

compound CCN1Cc2ccc(/C=C/c3n[nH]c4cc([C@@H]5C[C@@]56C(=O)Nc5ccc(OC)cc56)ccc34)cc2C1 (relative stereo) [Example A190, 2,2,2-trifluoroacetate] , inhibition at 1 µM observed: > 50%

compound COc1ccc2c(c1)[C@]1(C[C@H]1c1ccc3c(/C=C/c4ccc(CN5CCOCC5)cc4)n[nH]c3c1)C(=O)N2 (relative stereo) [Example A41, 2,2,2-trifluoroacetate] , inhibition at 1 µM observed: > 50%

compound COc1ccc2c(c1)[C@]1(C[C@H]1c1ccc3c(-c4ccc(CN(C)C)cc4)n[nH]c3c1)C(=O)N2 (relative stereo) [Example A166, 2,2,2-trifluoroacetate] , inhibition at 1 µM observed: < 50%

* * *

# System Name: Aurora A (Homo sapiens (Human), UniProt O14965)
# Sequence (O14965 whole entry): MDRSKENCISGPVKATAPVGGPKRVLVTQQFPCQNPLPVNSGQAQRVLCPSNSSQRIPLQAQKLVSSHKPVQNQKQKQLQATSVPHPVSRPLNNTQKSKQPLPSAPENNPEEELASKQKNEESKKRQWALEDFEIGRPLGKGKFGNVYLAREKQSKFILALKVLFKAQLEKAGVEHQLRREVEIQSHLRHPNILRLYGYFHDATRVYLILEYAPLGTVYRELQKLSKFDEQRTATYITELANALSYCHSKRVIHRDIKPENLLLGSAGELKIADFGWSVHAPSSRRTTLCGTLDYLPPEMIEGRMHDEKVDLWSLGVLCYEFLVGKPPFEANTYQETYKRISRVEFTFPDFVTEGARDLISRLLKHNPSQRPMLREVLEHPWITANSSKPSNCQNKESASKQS
# Protocol Description: Aurora A inhibition assay (Z-Lyte)
# Format: biochemical
Where a name gives a salt, the structure may show the parent alone.
Property: inhibition at 1 µM

# count of solved cases: 2
1) O=C1Nc2ccccc2[C@@]12C[C@@H]2c1ccc2c(/C=C/c3cccnc3)n[nH]c2c1 [Example A30] | > 50%
2) COc1ccc2c(c1)[C@]1(C[C@H]1c1ccc3c(/C=C/c4ccc(CN5[C@H](C)CCC[C@@H]5C)cc4)n[nH]c3c1)C(=O)N2 [Example A203, 2,2,2-trifluoroacetate] | > 50%

Now for another entry.
molecule CN1CCC(Oc2ccc(/C=C/c3n[nH]c4cc([C@@H]5C[C@@]56C(=O)Nc5ccccc56)ccc34)cc2)CC1 [Example A78, 2,2,2-trifluoroacetate salt] , inhibition at 1 µM observed: > 50%

* * *

# System Name: Aurora A (Homo sapiens (Human))
# Protocol Description: Aurora A inhibition assay (Z-Lyte)
# Format: biochemical
Structures can show the parent of a compound that is named as a salt.
Overview of reported inhibition at 1 µM across a group of molecules:

1. COc1ccc2c(c1)[C@@]1(C[C@@H]1c1ccc3c(-c4ccc(N5CCN(C)CC5)nc4)n[nH]c3c1)C(=O)N2 (stereo in doubt) [Example A16] | < 50%
2. COc1ccc2c(c1)[C@]1(C[C@H]1c1ccc3c(-c4ccc(N5CCNCC5)cc4)n[nH]c3c1)C(=O)N2 (relative stereo) [Example A48, 2,2,2-trifluoroacetate] | < 50%

Now for another entry.
molecule CN1CCc2ccc(/C=C/c3n[nH]c4cc([C@@H]5C[C@@]56C(=O)Nc5ccccc56)ccc34)cc2C1 [Example A65, 2,2,2-trifluoroacetate salt] , inhibition at 1 µM observed: > 50%

* * *

# System Name: human PLK4 (Homo sapiens (Human))
# Sequence (O00444 1-391): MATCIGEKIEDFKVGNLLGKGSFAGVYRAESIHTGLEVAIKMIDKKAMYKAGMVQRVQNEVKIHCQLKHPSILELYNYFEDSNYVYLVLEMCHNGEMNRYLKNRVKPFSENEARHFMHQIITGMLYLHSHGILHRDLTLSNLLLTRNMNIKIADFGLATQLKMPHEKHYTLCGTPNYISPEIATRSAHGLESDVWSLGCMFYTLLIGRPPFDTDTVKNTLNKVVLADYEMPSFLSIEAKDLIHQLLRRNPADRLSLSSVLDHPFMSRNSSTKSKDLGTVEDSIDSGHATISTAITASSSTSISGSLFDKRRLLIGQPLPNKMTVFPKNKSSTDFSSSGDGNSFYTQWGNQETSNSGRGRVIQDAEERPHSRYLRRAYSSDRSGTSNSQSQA
# Protocol Description: PLK4 inhibition assay (indirect ELISA)
# Type: biochemical
# Measurement Context: read-out: PLK4 IC50 Ranges
Property: IC50

# count of solved cases: 2
1) CN1CCN(c2ccc(-c3n[nH]c4cc([C@@H]5C[C@@]56C(=O)Nc5ccc(N)cc56)ccc34)cc2)CC1 (relative stereo) | < 100 nM
2) CN1CCN(c2ccc(-c3n[nH]c4cc([C@@H]5C[C@@]56C(=O)Nc5ccc(C(F)(F)F)cc56)ccc34)cc2)CC1 (relative stereo) [Example A170, 2,2,2-trifluoroacetate] | 100 to 1000 nM

Now for another entry.
compound Cc1cc(/C=C/c2n[nH]c3cc([C@@H]4C[C@@]45C(=O)Nc4ccccc45)ccc23)ccn1 (relative stereo) , IC50 observed: < 100 nM

* * *

# System Name: human PLK4 (Homo sapiens (Human))
# Protocol Description: PLK4 inhibition assay (indirect ELISA)
# Assay type: biochemical
# Measurement Context: read-out: PLK4 IC50 Ranges
pIC50: −log10 of the molar value.
Overview of reported pIC50 across a group of compounds:

1) COc1ccc2c(c1)[C@]1(C[C@H]1c1ccc3c(-c4ccc(N5CCNCC5)nc4)n[nH]c3c1)C(=O)N2 (relative stereo) | > 7.00
2) CCc1ccc2c(c1)[C@]1(C[C@H]1c1ccc3c(-c4ccc(N5CCN(C)CC5)cc4)n[nH]c3c1)C(=O)N2 (relative stereo) [Example A142, 2,2,2-trifluoroacetate] | > 7.00

compound COc1cc2c(cc1OC)[C@]1(C[C@H]1c1ccc3c(-c4cccc(CN5CCOCC5)c4)n[nH]c3c1)C(=O)N2 (relative stereo) [Example A143, 2,2,2-trifluoroacetate] , pIC50 observed: < 6.00

compound COc1ccc2c(c1)[C@]1(C[C@H]1c1ccc3c(-c4ccc(N5CCN(C)CC5)cc4)n[nH]c3c1)C(=O)N2C (relative stereo) [Example A100, 2,2,2-trifluoroacetate] , pIC50 observed: > 7.00

* * *

Overview of reported inhibition at 1 µM across a group of compounds:
# System Name: Aurora A (Homo sapiens (Human), UniProt O14965)
# Protocol Description: Aurora A inhibition assay (Z-Lyte)
# Format: biochemical
Counter-ions that a name gives are not always drawn.

# count of solved cases: 3
1) COc1ccc2c(c1)[C@]1(C[C@H]1c1ccc3c(/C=C/c4ccc(CN5CCCCC5)cc4)n[nH]c3c1)C(=O)N2 [Example A59, 2,2,2-trifluoroacetate salt] | > 50%
2) COc1ccc2c(c1)[C@]1(C[C@H]1c1ccc3c(-c4ccc(N5C[C@@H](C)N[C@@H](C)C5)cc4)n[nH]c3c1)C(=O)N2 [Example A126, 2,2,2-trifluoroacetate] | < 50%
3) COc1ccc2c(c1)[C@]1(CC1c1ccc3c(/C=C/c4ccc(N5CCN(C)CC5)nc4)n[nH]c3c1)C(=O)N2 (single isomer, unassigned) | > 50%

compound COc1ccc2c(c1)[C@]1(C[C@H]1c1ccc3c(/C=C/c4cc(F)c(CN5CCOCC5)c(F)c4)n[nH]c3c1)C(=O)N2 [Example A218, 2,2,2-trifluoroacetate] , inhibition at 1 µM observed: > 50%

compound O=C1Nc2ccccc2[C@]12C[C@H]2c1ccc2c(/C=C/c3ccc(CN4CCCCC4)cc3)n[nH]c2c1 (relative stereo) [Example A57, 2,2,2-trifluoroacetate] , inhibition at 1 µM observed: > 50%

* * *

Overview of reported inhibition at 1 µM across a group of molecules:
# System Name: Aurora A (Homo sapiens (Human), UniProt O14965)
# Protocol Description: Aurora A inhibition assay (Z-Lyte)
# Assay type: biochemical
Structures can show the parent of a compound that is named as a salt.

# count of solved cases: 6
1) CN(C)Cc1cccc(/C=C/c2n[nH]c3cc([C@@H]4C[C@@]45C(=O)Nc4ccccc45)ccc23)c1 (relative stereo) [Example A162, 2,2,2-trifluoroacetate] | > 50%
2) COc1ccc2c(c1)[C@]1(C[C@H]1c1ccc3c(/C=C/c4ccc(CN5CCCC5)cc4)n[nH]c3c1)C(=O)N2 [Example A83, 2,2,2-trifluoroacetate] | > 50%
3) COc1ccc2c(c1)[C@]1(C[C@H]1c1ccc3c(/C=C/c4ccc(CN5CCOCC5)cc4)n[nH]c3c1)C(=O)N2C [Example A102, hydrochloride] | > 50%
4) COc1ccc2c(c1)[C@]1(C[C@H]1c1ccc3c(-c4ccc(N5CCN(C)CC5)cc4)n[nH]c3c1)C(=O)N2C (relative stereo) [Example A100, 2,2,2-trifluoroacetate] | < 50%
5) CCN(CC)Cc1c(F)cc(/C=C/c2n[nH]c3cc([C@@H]4C[C@@]45C(=O)Nc4ccc(OC)cc45)ccc23)cc1F [Example A146, 2,2,2-trifluoroacetate] | < 50%
6) Cc1ccc2c(c1)[C@]1(C[C@H]1c1ccc3c(/C=C/c4ccc(CN5CCOCC5)cc4)n[nH]c3c1)C(=O)N2 [Example A195, 2,2,2-trifluoroacetate] | > 50%

Now for another entry.
molecule CN1CCN(c2ccc(-c3n[nH]c4cc([C@@H]5C[C@@]56C(=O)Nc5ccc(N)cc56)ccc34)cc2)CC1 (relative stereo) , inhibition at 1 µM observed: > 50%

* * *

# System Name: Aurora A (Homo sapiens (Human))
# Protocol Description: Aurora A inhibition assay (Z-Lyte)
# Assay type: biochemical
Counter-ions that a name gives are not always drawn.
Overview of reported inhibition at 1 µM across a group of compounds:

# count of solved cases: 7
1) COc1ccc2c(c1)[C@]1(C[C@H]1c1ccc3c(/C=C/c4ccc(CN5CCOCC5)s4)n[nH]c3c1)C(=O)N2 [Example A105, hydrochloride] | > 50%
2) COc1ccc2c(c1)[C@]1(C[C@H]1c1ccc3c(-c4ccc(N5CCN(CCO)CC5)cc4)n[nH]c3c1)C(=O)N2 [Example A191, 2,2,2-trifluoroacetate] | < 50%
3) COc1ccc2c(c1)[C@]1(C[C@H]1c1ccc3c(-c4ccc(OCCn5ccnc5)cc4)n[nH]c3c1)C(=O)N2 [Example A108, 2,2,2-trifluoroacetate] | < 50%
4) COc1ccc2c(c1)[C@]1(CC1c1ccc3c(/C=C/c4ccc(CN5CCCCC5)nc4)n[nH]c3c1)C(=O)N2 (mixture of isomers) [Example A62, 2,2,2-trifluoroacetate salt] | > 50%
5) COc1ccc2c(c1)[C@@]1(C[C@@H]1c1ccc3c(-c4ccc(N5CCNCC5)cc4)n[nH]c3c1)C(=O)N2 [Example A50, 2,2,2-trifluoroacetate] | < 50%
6) COc1ccc2c(c1)[C@]1(C[C@H]1c1ccc3c(/C=C/c4ccc(CN5CC[C@@H](F)C5)cc4)n[nH]c3c1)C(=O)N2 [Example A112, 2,2,2-trifluoroacetate] | > 50%
7) COc1ccc2c(c1)[C@]1(C[C@H]1c1ccc3c(/C=C/c4ccc5c(c4)CNCC5)n[nH]c3c1)C(=O)N2 [Example A66, 2,2,2-trifluoroacetate salt] | > 50%

Now for another entry.
compound COc1ccc2c(c1)[C@]1(C[C@H]1c1ccc3c(/C=C/c4csc(CN5CCOCC5)c4)n[nH]c3c1)C(=O)N2 [Example A183, 2,2,2-trifluoroacetate] , inhibition at 1 µM observed: > 50%
